Readings of TLR9-500 nM: averaged NF-κB-Luciferase relative to ODN2006 for the listed substances
assayedSystem: human TLR9 (Homo sapiens, UniProt Q9NR96)
Construct: HA; host or cells: 293XL-hTLR9-HA (HEK293)
Sequence (Q9NR96 26-1032): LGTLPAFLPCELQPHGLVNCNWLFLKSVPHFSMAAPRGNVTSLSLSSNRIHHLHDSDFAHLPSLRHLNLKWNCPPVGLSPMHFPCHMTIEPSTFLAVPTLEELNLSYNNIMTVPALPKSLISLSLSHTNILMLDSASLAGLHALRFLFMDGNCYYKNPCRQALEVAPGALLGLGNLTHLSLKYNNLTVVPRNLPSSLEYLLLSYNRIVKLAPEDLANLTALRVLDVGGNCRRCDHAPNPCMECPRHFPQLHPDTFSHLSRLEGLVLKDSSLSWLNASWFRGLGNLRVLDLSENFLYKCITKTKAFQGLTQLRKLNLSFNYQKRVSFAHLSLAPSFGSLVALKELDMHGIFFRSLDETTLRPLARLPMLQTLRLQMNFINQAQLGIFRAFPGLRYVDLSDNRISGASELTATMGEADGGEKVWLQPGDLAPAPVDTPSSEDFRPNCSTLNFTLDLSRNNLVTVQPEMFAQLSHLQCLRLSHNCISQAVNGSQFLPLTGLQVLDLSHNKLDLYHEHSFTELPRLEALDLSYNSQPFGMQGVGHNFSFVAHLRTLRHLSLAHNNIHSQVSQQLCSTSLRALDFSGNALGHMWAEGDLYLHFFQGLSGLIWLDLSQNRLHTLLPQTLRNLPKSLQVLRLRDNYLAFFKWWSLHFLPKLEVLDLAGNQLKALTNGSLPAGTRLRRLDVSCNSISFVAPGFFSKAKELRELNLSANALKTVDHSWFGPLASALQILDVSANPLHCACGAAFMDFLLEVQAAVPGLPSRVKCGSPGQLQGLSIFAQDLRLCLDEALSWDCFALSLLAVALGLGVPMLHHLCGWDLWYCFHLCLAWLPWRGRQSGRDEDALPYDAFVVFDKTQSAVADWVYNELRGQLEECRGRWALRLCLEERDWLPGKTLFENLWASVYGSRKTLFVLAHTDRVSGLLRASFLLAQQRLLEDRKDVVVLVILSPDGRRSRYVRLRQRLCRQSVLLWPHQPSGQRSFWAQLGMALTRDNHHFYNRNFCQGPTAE
assayInfo: HEK-TLR9 NF-κB-luciferase reporter, ODN2006 stimulation
Assay type: cell-based
assaySetup: HEK-TLR9; 500 nM ASO 45 min, then 200 nM ODN2006 overnight; percentage of ODN2006 only
In the oligonucleotide strings, read from the 5' end, every base follows the letter of its sugar. An asterisk marks phosphorothioate; unmarked linkages are phosphodiester. Other units and linkages are bracketed, terminal groups are in braces. A string of capitals states the bases alone. d = 2'-deoxy (DNA); m = 2'-O-methyl
Report the figure in % without appending any unit label.

substance	assayedSystem	quantitativeReadout
mC*mA*mG*mU*mC*T*C*C*A*T*G*T*C*C*C*mA*mG*mG*mC*mC (mC*mA*mG*mU*mC*dT*dC*dC*dA*dT*dG*dT*dC*dC*dC*mA*mG*mG*mC*mC; antisense) [[CDKN2B-AS1]2233]	human TLR9 (Homo sapiens, UniProt Q9NR96)	55.13
mG*mC*mA*mA*mG*G*C*A*G*A*G*A*A*A*C*mU*mC*mC*mA*mG (GCAAGGCAGAGAAACUCCAG; sugars from the 5' end m5 d10 m5, all phosphorothioate, methylation of C not given here) [[LINC-PINT]1315 KL]	human TLR9 (Homo sapiens, UniProt Q9NR96)	53.46
mG*mG*mA*mU*mU*A*A*A*A*C*A*G*A*T*T*mA*mA*mU*mA*mC (GGAUUAAAACAGATTAAUAC; sugars from the 5' end m5 d10 m5, all phosphorothioate, methylation of C not given here) [[CDKN2B-AS1]1774]	human TLR9 (Homo sapiens, UniProt Q9NR96)	27.79
mG*mG*mU*mC*mU*C*C*T*C*C*A*C*A*C*C*mC*mU*mU*mC*mU (mG*mG*mU*mC*mU*dC*dC*dT*dC*dC*dA*dC*dA*dC*dC*mC*mU*mU*mC*mU; antisense) [[LINC-PINT]127]	human TLR9 (Homo sapiens, UniProt Q9NR96)	77.91
mC*mC*mU*mA*mG*A*A*A*G*A*A*G*C*A*A*mA*mG*mA*mU*mU (mC*mC*mU*mA*mG*dA*dA*dA*dG*dA*dA*dG*dC*dA*dA*mA*mG*mA*mU*mU) [[CDKN2B-AS1]1522]	human TLR9 (Homo sapiens, UniProt Q9NR96)	42.44
mC*mC*mU*mU*mC*T*C*T*C*T*G*GT*C*C*mC*mA*mU*mC*mC (CCUUCTCTCTGGTCCCAUCC; antisense; chemistry not fully specified) [[LINC-PINT]113]	human TLR9 (Homo sapiens, UniProt Q9NR96)	55.47
mG*mC*mG*mU*mA*G*T*T*T*C*T*C*T*T*C*mC*mU*mC*mC*mC (GCGUAGTTTCTCTTCCUCCC; sugars from the 5' end m5 d10 m5, all phosphorothioate, methylation of C not given here) [[LINC-PINT]935 KL]	human TLR9 (Homo sapiens, UniProt Q9NR96)	52.04
mG*mA*mU*mU*mA*A*A*A*C*A*G*A*T*T*A*mA*mU*mA*mC*mA (mG*mA*mU*mU*mA*dA*dA*dA*dC*dA*dG*dA*dT*dT*dA*mA*mU*mA*mC*mA) [[CDKN2B-AS1]1773]	human TLR9 (Homo sapiens, UniProt Q9NR96)	44.97

Next up:
**Q:** Form field: reported TLR9-500 nM: averaged NF-κB-Luciferase relative to ODN2006 of mC*mU*mU*mU*mA*T*A*T*T*A*C*A*A*A*G*mC*mU*mA*mC*mU (mC*mU*mU*mU*mA*dT*dA*dT*dT*dA*dC*dA*dA*dA*dG*mC*mU*mA*mC*mU; antisense) [[LINC-PINT]2755]
**A:** 84.43
